These measurements were taken from the supplement of paper PMC7125110.

B1: glmS ribozyme (parent)
chain: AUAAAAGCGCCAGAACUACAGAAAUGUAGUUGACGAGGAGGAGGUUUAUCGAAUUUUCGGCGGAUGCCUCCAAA

# Variants of: B1
# ASSAY_OVERVIEW: self-cleavage kobs at 160 uM GlcN6P; higher = faster cleavage; RNA array
# MEASUREMENT_CONDITIONS: with glucosamine-6-phosphate
This sample holds only a part of the variants without activity.
RECORDED_METRIC: self-cleavage kobs at 160 uM GlcN6P

{"CHANGES": "A15U G37U", "RECORDED_METRIC": "self-cleavage kobs at 160 uM GlcN6P", "REPORTED": "< 1e-05 s⁻¹"}
{"CHANGES": "A42G G62A", "RECORDED_METRIC": "self-cleavage kobs at 160 uM GlcN6P", "REPORTED": "< 1e-05 s⁻¹"}
{"CHANGES": "G35U C67A", "RECORDED_METRIC": "self-cleavage kobs at 160 uM GlcN6P", "REPORTED": "< 1e-05 s⁻¹"}
{"CHANGES": "A33U G38A A48G G66U U69G", "RECORDED_METRIC": "self-cleavage kobs at 160 uM GlcN6P", "REPORTED": "4.81e-05 s⁻¹"}
{"CHANGES": "G35C G40C A52C", "RECORDED_METRIC": "self-cleavage kobs at 160 uM GlcN6P", "REPORTED": "< 1e-05 s⁻¹"}
{"CHANGES": "C67U U69C", "RECORDED_METRIC": "self-cleavage kobs at 160 uM GlcN6P", "REPORTED": "4.3e-05 s⁻¹"}
{"CHANGES": "C50U G59A", "RECORDED_METRIC": "self-cleavage kobs at 160 uM GlcN6P", "REPORTED": "< 1e-05 s⁻¹"}
{"CHANGES": "G13C G60A", "RECORDED_METRIC": "self-cleavage kobs at 160 uM GlcN6P", "REPORTED": "< 1e-05 s⁻¹"}
{"CHANGES": "C10U G40C G44U", "RECORDED_METRIC": "self-cleavage kobs at 160 uM GlcN6P", "REPORTED": "< 1e-05 s⁻¹"}
{"CHANGES": "C11U G62C", "RECORDED_METRIC": "self-cleavage kobs at 160 uM GlcN6P", "REPORTED": "< 1e-05 s⁻¹"}
{"CHANGES": "U55G U65G", "RECORDED_METRIC": "self-cleavage kobs at 160 uM GlcN6P", "REPORTED": "0.00022 s⁻¹"}
{"CHANGES": "C8A C16U U31C G38A U56C", "RECORDED_METRIC": "self-cleavage kobs at 160 uM GlcN6P", "REPORTED": "< 1e-05 s⁻¹"}
